- Target Entity: Human plasma kallikrein (Homo sapiens (Human))
- Sequence (P03952 391-638): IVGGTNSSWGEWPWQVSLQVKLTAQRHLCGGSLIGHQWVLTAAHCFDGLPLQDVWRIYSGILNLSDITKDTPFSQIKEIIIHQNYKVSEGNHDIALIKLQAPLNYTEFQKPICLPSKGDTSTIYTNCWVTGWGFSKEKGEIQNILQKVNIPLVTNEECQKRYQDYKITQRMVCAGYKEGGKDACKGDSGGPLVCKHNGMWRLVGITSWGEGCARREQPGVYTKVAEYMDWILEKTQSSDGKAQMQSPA
- Sequence (P03952 20-390 partner): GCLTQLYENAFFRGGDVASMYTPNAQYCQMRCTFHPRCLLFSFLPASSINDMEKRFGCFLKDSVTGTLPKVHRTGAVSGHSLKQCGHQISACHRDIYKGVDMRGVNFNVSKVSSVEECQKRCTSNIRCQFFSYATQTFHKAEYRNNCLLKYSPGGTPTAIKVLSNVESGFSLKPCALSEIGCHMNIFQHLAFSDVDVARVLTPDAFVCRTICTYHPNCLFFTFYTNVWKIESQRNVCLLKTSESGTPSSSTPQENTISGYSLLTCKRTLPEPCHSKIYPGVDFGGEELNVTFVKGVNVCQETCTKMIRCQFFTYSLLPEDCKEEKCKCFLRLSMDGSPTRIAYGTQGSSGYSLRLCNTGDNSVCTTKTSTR
- Test Summary: Kallikrein Assay (fluorogenic substrate Acetyl-K-P-R-AFC)
- Measurement Setup: Plasma Kallikrein (PKal)
The following compounds are listed with their measured IC50 values.
Give just the numeric value; nM need not be written.

Measured on Human plasma kallikrein (Homo sapiens (Human)), COCc1ncc(-c2c(C(F)F)ccc(Cl)c2F)nc1C(=O)Nc1cnn([C@@H](C)c2cnc(N3C[C@H]4C[C@H]4C3=O)nc2)c1 has a documented IC50 of 3

Measured on Human plasma kallikrein (Homo sapiens (Human)), CCc1ncc(-c2c(C(F)F)ccc(Cl)c2F)nc1C(=O)Nc1cnn(Cc2cc(C)c(N3C[C@H]4C[C@H]4C3=O)nn2)c1 has a documented IC50 of 19.7

Measured on Human plasma kallikrein (Homo sapiens (Human)), CC(O)c1ncc(-c2c(C(F)F)ccc(Cl)c2F)nc1C(=O)Nc1cnn(Cc2cnc(N3C[C@H]4C[C@H]4C3=O)c3c2OCO3)c1 (single isomer, unassigned) has a documented IC50 of 1.4

Measured on Human plasma kallikrein (Homo sapiens (Human)), Cc1ncc(-c2c(C(F)F)ccc(Cl)c2F)nc1C(=O)Nc1cnn(C(C)c2cnc(N3C[C@H]4C[C@H]4C3=O)c(Cl)c2)c1 (stereo partly drawn) [Example 91] has a documented IC50 of 1.3

Measured on Human plasma kallikrein (Homo sapiens (Human)), Cc1ncc(-c2c(C(F)F)ccc(Cl)c2F)nc1C(=O)Nc1cnn(Cc2cnc(N3C[C@H]4C[C@H]4C3=O)c(C)n2)c1 has a documented IC50 of 0.9

Measured on Human plasma kallikrein (Homo sapiens (Human)), Cc1cc(Cn2cc(NC(=O)c3nc(-c4c(C(F)F)ccc(Cl)c4F)cnc3C(C)O)cn2)nnc1N1C[C@H]2C[C@H]2C1=O (single isomer, unassigned) [Example 209] has a documented IC50 of 3.8

Data credit: patent US20230286958A1
